Catalogue of log10 IC50 readings, one per entry.
Target: Amine oxidase [flavin-containing] A (Homo sapiens, UniProt P21397)
Assay: Inhibition of human recombinant MAOA expressed in baculovirus infected BTI insect cells after 20 mins by spectrofluorimetric analysis
// do not treat as linear: log10 of IC50, unit µM

Solved cases (5 shown):
>>> reported_measurement("Cc1cc2cc(NC(=O)/C=C/c3cccc(Cl)c3)ccc2[nH]1")
0.88
>>> reported_measurement("Cc1cc2cc(NC(=O)c3ccc(Cl)c(Cl)c3)ccc2[nH]1")
0.99
>>> reported_measurement("Cc1cc2cc(NC(=O)c3cccc(Cl)c3)ccc2[nH]1")
1.49
>>> reported_measurement("Cc1cc2cc(NC(=O)/C=C/c3ccccc3)ccc2[nH]1")
2.82
>>> reported_measurement("O=C1Cc2cc(OC(=O)c3ccccc3)ccc2O1")
1.06

Then there is this compound:
## Task Given the entry `O=C1Cc2cc(OC(=O)c3cccc(Cl)c3)ccc2O1` , what log10 IC50 was observed with Amine oxidase [flavin-containing] A (Homo sapiens, UniProt P21397)?
## Result 0.88

###

Each entry below lists one item and its recorded Ki value.
Target: Amine oxidase [flavin-containing] B (Homo sapiens, UniProt P27338)
Test: Inhibition of human recombinant MAOB expressed in baculovirus infected BTI insect cells after 20 mins by spectrofluorimetric analysis
Hi! Could you send only the number? It should be in nM, unit omitted.

## Task Any idea what Ki was measured for `O=C(/C=C/c1ccccc1)Oc1ccc2c(c1)CC(=O)O2` ?
## Result 520

## Task Try this compound next: `Cc1cc2cc(NC(=O)/C=C/c3ccccc3)ccc2[nH]1`
## Result 8010

## Task Also check `Cc1cc2cc(NC(=O)/C=C/c3cccc(Cl)c3)ccc2[nH]1`
## Result 4230

## Task Thanks! And `Cc1cc2cc(NC(=O)C3CCCCC3)ccc2[nH]1` ?
## Result 3000

## Task What do you get for `Cc1cc2cc(NC(=O)c3cccc(S(=O)(=O)O)c3)ccc2[nH]1` ?
## Result 75700

## Task Please give the result for `Cc1cc2cc(NC(=O)c3cccc(Cl)c3)ccc2[nH]1` too.
## Result 330

## Task And for `O=C1Cc2cc(OC(=O)c3cccc(Cl)c3)ccc2O1` ?
## Result 430

## Task Request: `Cc1cc2cc(NC(=O)c3ccccc3)ccc2[nH]1`
## Result 1650

## Task Ok, now `Cc1cc2cc(NC(=O)c3ccc(Cl)c(Cl)c3)ccc2[nH]1`
## Result 30

## Task Let us now turn to `O=C1Cc2cc(OC(=O)c3ccccc3)ccc2O1`
## Result 3830

## Task Same thing, different compound: `O=C(/C=C/c1cccc(Cl)c1)Oc1ccc2c(c1)CC(=O)O2`
## Result 190

###

Molecular target: Amine oxidase [flavin-containing] A (Homo sapiens, UniProt P21397)
Sequence (P21397 whole entry): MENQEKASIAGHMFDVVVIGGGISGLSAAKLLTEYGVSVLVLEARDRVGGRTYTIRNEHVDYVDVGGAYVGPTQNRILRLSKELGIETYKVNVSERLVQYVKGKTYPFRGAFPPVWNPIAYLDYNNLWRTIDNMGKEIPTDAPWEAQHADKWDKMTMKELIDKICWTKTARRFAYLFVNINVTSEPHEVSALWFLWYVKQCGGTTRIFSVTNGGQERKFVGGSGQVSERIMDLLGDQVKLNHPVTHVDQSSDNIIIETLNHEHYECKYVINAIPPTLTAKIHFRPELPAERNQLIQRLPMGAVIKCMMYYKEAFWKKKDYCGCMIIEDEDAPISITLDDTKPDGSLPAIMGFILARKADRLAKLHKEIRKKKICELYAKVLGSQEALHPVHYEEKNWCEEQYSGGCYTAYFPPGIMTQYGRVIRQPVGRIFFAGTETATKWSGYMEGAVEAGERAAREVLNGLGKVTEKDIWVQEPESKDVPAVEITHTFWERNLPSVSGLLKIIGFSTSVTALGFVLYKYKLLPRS
Assay: Inhibition of human recombinant MAOA expressed in baculovirus infected BTI insect cells after 20 mins by spectrofluorimetric analysis
Measure: IC50 (µM)
Form entry: value (µM) — number only.

## Task Name the reported IC50 value associated with the compound `Cc1cc2cc(NC(=O)c3ccccc3)ccc2[nH]1`
## Result 150

## Task Queued: `Cc1cc2cc(NC(=O)c3cccc(S(=O)(=O)O)c3)ccc2[nH]1`
## Result 259

## Task Please give the result for `O=C(/C=C/c1ccccc1)Oc1ccc2c(c1)CC(=O)O2` too.
## Result 12.5

## Task // same read-out, input: `Cc1cc2cc(NC(=O)C3CCCCC3)ccc2[nH]1`
## Result 69.4

## Task Also, `O=C(/C=C/c1cccc(Cl)c1)Oc1ccc2c(c1)CC(=O)O2` please.
## Result 3.9

## Task Okay, and `Cc1cc2cc(NC(=O)c3ccc[n+](C)c3)ccc2[nH]1` ?
## Result 20.8

###

Target: Amine oxidase [flavin-containing] B (Homo sapiens, UniProt P27338)
Sequence (P27338 whole entry): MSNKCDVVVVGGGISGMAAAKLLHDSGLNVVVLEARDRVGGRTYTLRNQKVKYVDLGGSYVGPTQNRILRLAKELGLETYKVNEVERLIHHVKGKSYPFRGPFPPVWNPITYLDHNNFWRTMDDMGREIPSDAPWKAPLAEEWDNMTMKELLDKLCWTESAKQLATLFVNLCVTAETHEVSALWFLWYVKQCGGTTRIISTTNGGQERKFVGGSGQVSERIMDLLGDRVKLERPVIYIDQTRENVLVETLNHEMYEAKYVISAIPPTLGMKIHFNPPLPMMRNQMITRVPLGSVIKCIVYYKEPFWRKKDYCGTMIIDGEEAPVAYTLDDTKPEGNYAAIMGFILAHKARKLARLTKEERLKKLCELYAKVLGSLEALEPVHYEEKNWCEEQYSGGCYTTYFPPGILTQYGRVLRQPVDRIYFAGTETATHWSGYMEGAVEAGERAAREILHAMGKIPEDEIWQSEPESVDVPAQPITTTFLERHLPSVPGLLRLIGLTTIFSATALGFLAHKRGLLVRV
Test: Inhibition of human recombinant MAOB expressed in baculovirus infected BTI insect cells after 20 mins by spectrofluorimetric analysis
Sorting guide: entries reporting IC50 beneath 1 µM go in the 1 pile, the rest go in the -1 pile.

These solved cases illustrate the format of a correct answer.
>>> class("O=C(/C=C/c1cccc(Cl)c1)Oc1ccc2c(c1)CC(=O)O2")
1
>>> class("Cc1cc2cc(NC(=O)/C=C/c3cccc(Cl)c3)ccc2[nH]1")
-1
>>> class("O=C1Cc2cc(OC(=O)c3ccccc3)ccc2O1")
-1
>>> class("Cc1cc2cc(NC(=O)c3cccc(S(=O)(=O)O)c3)ccc2[nH]1")
-1
>>> class("Cc1cc2cc(NC(=O)/C=C/c3ccccc3)ccc2[nH]1")
-1

## Task API: query returns whether the compound falls strictly under 1 µM in IC50. Query: `Cc1cc2cc(NC(=O)c3ccc(Cl)c(Cl)c3)ccc2[nH]1`
## Result 1

## Task And for `Cc1cc2cc(NC(=O)c3ccccc3)ccc2[nH]1` ?
## Result -1

## Task Again, but for `Cc1cc2cc(NC(=O)C3CCCCC3)ccc2[nH]1`
## Result -1

## Task Try the compound `O=C(/C=C/c1ccccc1)Oc1ccc2c(c1)CC(=O)O2`
## Result -1

## Task // same read-out, input: `Cc1cc2cc(NC(=O)c3cccc(Cl)c3)ccc2[nH]1`
## Result 1

###

Molecular target: Amine oxidase [flavin-containing] A (Homo sapiens)
Assay: Inhibition of human recombinant MAOA expressed in baculovirus infected BTI insect cells after 20 mins by spectrofluorimetric analysis
Measure: log10 of Ki (log10 of the value in µM)
# log10 transformed; quantity=Ki; unit=µM

Some solved entries appear below for comparison.
>>> reported_measurement("O=C1Cc2cc(OC(=O)c3ccccc3)ccc2O1")
0.48
>>> reported_measurement("Cc1cc2cc(NC(=O)C3CCCCC3)ccc2[nH]1")
1.26
>>> reported_measurement("O=C1Cc2cc(OC(=O)c3cccc(Cl)c3)ccc2O1")
0.31

## Task Record request: log10 of Ki value, item `Cc1cc2cc(NC(=O)c3cccc(Cl)c3)ccc2[nH]1`
## Result 0.91

## Task Check `Cc1cc2cc(NC(=O)c3ccccc3)ccc2[nH]1` too.
## Result 1.60

## Task Would you mind doing `Cc1cc2cc(NC(=O)c3ccc(Cl)c(Cl)c3)ccc2[nH]1` as well?
## Result 0.41

## Task Would you mind doing `Cc1cc2cc(NC(=O)/C=C/c3cccc(Cl)c3)ccc2[nH]1` as well?
## Result 0.31

## Task How about `O=C(/C=C/c1ccccc1)Oc1ccc2c(c1)CC(=O)O2` ?
## Result 0.52

## Task How about `Cc1cc2cc(NC(=O)/C=C/c3ccccc3)ccc2[nH]1` ?
## Result 2.24

###

Organism: Homo sapiens
Experiment: Selectivity ratio of Ki for human recombinant MAOA to Ki for human recombinant MAOB
Friendly reminder: Selectivity ratio below 6 is condition met, at or above is condition not met.

Some solved entries appear below for comparison.
>>> class("Cc1cc2cc(NC(=O)/C=C/c3cccc(Cl)c3)ccc2[nH]1")
"condition met"
>>> class("Cc1cc2cc(NC(=O)c3ccc(Cl)c(Cl)c3)ccc2[nH]1")
"condition not met"
>>> class("Cc1cc2cc(NC(=O)c3cccc(Cl)c3)ccc2[nH]1")
"condition not met"

## Task State whether 6 exceeds Selectivity ratio recorded for `Cc1cc2cc(NC(=O)c3cccc(S(=O)(=O)O)c3)ccc2[nH]1` .
## Result condition met

## Task Field entry: `O=C1Cc2cc(OC(=O)c3ccccc3)ccc2O1`
## Result condition met

## Task What would you report for `O=C1Cc2cc(OC(=O)c3cccc(Cl)c3)ccc2O1` ?
## Result condition met

## Task Repeat for the following compound: `Cc1cc2cc(NC(=O)/C=C/c3ccccc3)ccc2[nH]1`
## Result condition not met

## Task Now consider `Cc1cc2cc(NC(=O)c3ccccc3)ccc2[nH]1` and answer again.
## Result condition not met

## Task Next: `O=C(/C=C/c1cccc(Cl)c1)Oc1ccc2c(c1)CC(=O)O2`
## Result condition met
